# target_or_system: full-length kinase/Nluc fusion proteins (Homo sapiens)
# protocol_summary: Apparent affinity (EC50) of energy transfer probes by titration onto live HEK293 cells expressing kinase/Nluc fusions (Table S1)
# condition_notes: CDK9, Nluc N; read-out: Probe EC50
readout_label: EC50 (µM)
A number alone suffices; assume µM.

State its EC50 for this molecule: N#CCc1ccc(Nc2nc(NCCCCNC(=O)CCc3ccc4n3[B-](F)(F)[N+]3=C(c5ccc[nH]5)C=CC3=C4)cc(Nc3cc(C4CC4)[nH]n3)n2)cc1 [Energy Transfer Probe 1] 0.2

###

# target_or_system: full-length kinase/Nluc fusion proteins (Homo sapiens)
# Sequence (O94768 1-372): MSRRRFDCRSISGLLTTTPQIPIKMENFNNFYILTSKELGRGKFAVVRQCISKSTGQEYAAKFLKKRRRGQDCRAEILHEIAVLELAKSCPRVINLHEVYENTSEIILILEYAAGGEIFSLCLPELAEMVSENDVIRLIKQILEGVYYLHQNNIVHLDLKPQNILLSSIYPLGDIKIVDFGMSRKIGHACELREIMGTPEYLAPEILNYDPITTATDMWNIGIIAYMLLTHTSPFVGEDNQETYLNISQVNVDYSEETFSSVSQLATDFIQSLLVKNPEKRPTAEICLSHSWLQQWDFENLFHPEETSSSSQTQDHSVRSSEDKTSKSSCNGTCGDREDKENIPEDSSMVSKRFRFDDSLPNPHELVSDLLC
# protocol_summary: Apparent affinity (EC50) of energy transfer probes by titration onto live HEK293 cells expressing kinase/Nluc fusions (Table S1)
# condition_notes: STK17B (NP_004217), Nluc orientation C; read-out: Probe EC50
readout_label: EC50 (nM)
A number alone suffices; assume nM.

Provide the reported EC50 (system: full-length kinase/Nluc fusion proteins (Homo sapiens)) for N#CCc1ccc(Nc2nc(NCCCCNC(=O)CCc3ccc4n3[B-](F)(F)[N+]3=C(c5ccc[nH]5)C=CC3=C4)cc(Nc3cc(C4CC4)[nH]n3)n2)cc1 [Energy Transfer Probe 1] 300
